Where do these numbers come from? They come from ChEMBL document CHEMBL3102803.

# assay_summary: Plasma clearance in Sprague-Dawley rat at 4 mg/kg, iv
# Type: ADME, organism-based
# Parameters: dose 4 mg/kg, route intravenous
attribute_measured: clearance (mL/min/kg)
Quick reminder: number only, in mL/min/kg, skip the unit.

IN: clearance lookup needed for "CC(=O)N1CCC(C(=O)N(CCCN2CCC(C(=O)NCc3ccccc3)CC2)c2cccc(Cl)c2)CC1" , thanks.
OUT: 20.8

----------
# assay_summary: Plasma clearance in Sprague-Dawley rat at 25 mg/kg, po
# Type: ADME, organism-based
# Set-up: dose 25 mg/kg, route oral
attribute_measured: CL/F
Please answer in the form of a number followed by its unit of measurement.

IN: CL/F lookup needed for "CC(=O)N1CCC(C(=O)N(CCCN2CCC(C(=O)NCc3ccccc3)CC2)c2cccc(Cl)c2)CC1" , thanks.
OUT: 148 mL/min/kg

----------
# target_system: C-C chemokine receptor type 5 (Homo sapiens)
# Sequence (P51681 whole entry): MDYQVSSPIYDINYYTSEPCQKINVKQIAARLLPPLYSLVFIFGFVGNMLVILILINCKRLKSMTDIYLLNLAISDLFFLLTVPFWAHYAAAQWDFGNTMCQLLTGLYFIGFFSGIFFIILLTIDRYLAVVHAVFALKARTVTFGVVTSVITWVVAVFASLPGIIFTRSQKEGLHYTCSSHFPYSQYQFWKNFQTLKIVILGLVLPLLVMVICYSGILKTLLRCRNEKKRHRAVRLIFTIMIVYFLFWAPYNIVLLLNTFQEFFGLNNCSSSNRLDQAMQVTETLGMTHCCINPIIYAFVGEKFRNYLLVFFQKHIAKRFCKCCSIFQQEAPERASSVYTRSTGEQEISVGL
# assay_summary: Antagonist activity at CCR5 (unknown origin) expressed in CHO cell membranes assessed as inhibition of RANTES-stimulated [35S]-GTPgammaS binding after 1 hr by liquid scintillation counting analysis
# Assay type: functional
attribute_measured: IC50 (nM)
Quick reminder: number only, in nM, skip the unit.

IN: Item: "CCN(C(=O)Cc1ccccc1)C1CCN(CCCN(C(=O)C2CCN(C(C)=O)CC2)c2cccc(Cl)c2)CC1" Test system: C-C chemokine receptor type 5 (Homo sapiens) Read-out: IC50 Value: ?
OUT: 7

----------
# assay_summary: AUC (0 to 24 hrs) in Sprague-Dawley rat at 25 mg/kg, po
# Type: ADME, organism-based
# Set-up: time < 24 hr, dose 25 mg/kg, route oral
# cond: plasma
attribute_measured: AUC(0-t) at 24 h (µg·h/mL)
Quick reminder: number only, in µg·h/mL, skip the unit.

IN: AUC(0-t) at 24 h lookup needed for "CC(=O)N1CCC(C(=O)N(CCCN2CCC(C(=O)NCc3ccccc3)CC2)c2cccc(Cl)c2)CC1" , thanks.
OUT: 3.13

----------
# assay_summary: Half life in Sprague-Dawley rat at 4 mg/kg, iv
# Format: ADME, organism-based
# Set-up: dose 4 mg/kg, route intravenous
# cond: in vivo
attribute_measured: half-life

IN: half-life lookup needed for "CC(=O)N1CCC(C(=O)N(CCCN2CCC(C(=O)NCc3ccccc3)CC2)c2cccc(Cl)c2)CC1" , thanks.
OUT: 44.4 min

----------
Overview of recorded IC50 for various compounds
# target_system: C-C chemokine receptor type 5 (Homo sapiens)
# assay_summary: Inhibition of CCR5 (unknown origin) expressed in CHO cells assessed as inhibition of RANTES-induced intracellular Ca2+ mobilization after 10 mins by Fluo-4 AM staining-based fluorescence assay
# Assay type: functional, cell-based
Quick reminder: number only, in µM, skip the unit.

substance_smiles | units_label | IC50
CCN(CCc1ccc(Cl)cc1)C(=O)C1CCN(CCCN(C(=O)C2CCN(C(C)=O)CC2)c2cccc(Cl)c2)CC1 | µM | 0.126
CCN(Cc1ccc(C)cc1)C(=O)C1CCN(CCCN(C(=O)C2CCN(C(C)=O)CC2)c2cccc(Cl)c2)CC1 | µM | 0.202
CC(=O)N1CCC(C(=O)N(CCCN2CCC(C(=O)NCc3ccccc3)CC2)c2cccc(Cl)c2)CC1 | µM | 0.0257

IN: IC50 lookup needed for "CCN(C(=O)Cc1ccccc1)C1CCN(CCCN(C(=O)C2CCN(C(C)=O)CC2)c2cccc(Cl)c2)CC1" , thanks.
OUT: 0.252

IN: What do we get for "CC(=O)N1CCC(C(=O)N(CCCN2CCC(C(=O)N(C)Cc3ccccc3)CC2)c2cccc(Cl)c2)CC1" ?
OUT: 0.0641

IN: What do we get for "CC(=O)N1CCC(C(=O)N(CCCN2CCC(C(=O)NCCc3ccc(F)cc3)CC2)c2cccc(Cl)c2)CC1" ?
OUT: 0.197

IN: What do we get for "CCN(CCc1ccc(F)cc1)C(=O)C1CCN(CCCN(C(=O)C2CCN(C(C)=O)CC2)c2cccc(Cl)c2)CC1" ?
OUT: 0.152

IN: What do we get for "CC(=O)N1CCC(C(=O)N(CCCN2CCC(C(=O)NCc3ccc(Cl)cc3)CC2)c2cccc(Cl)c2)CC1" ?
OUT: 0.0255

IN: What do we get for "CCN(CCc1ccccc1)C(=O)C1CCN(CCCN(C(=O)C2CCN(C(C)=O)CC2)c2cccc(Cl)c2)CC1" ?
OUT: 0.0264

IN: What do we get for "CCN(Cc1ccc(C#N)cc1)C(=O)C1CCN(CCCN(C(=O)C2CCN(C(C)=O)CC2)c2cccc(Cl)c2)CC1" ?
OUT: 0.473
